Biological target: Insulin receptor (IR) (Homo sapiens, UniProt P06213-2;P06213-2 P06213-2:28-746,P06213-2:751-944)
Sequence (P06213 other isoform, or with tags, fused parts or gaps, chain 1 of 2): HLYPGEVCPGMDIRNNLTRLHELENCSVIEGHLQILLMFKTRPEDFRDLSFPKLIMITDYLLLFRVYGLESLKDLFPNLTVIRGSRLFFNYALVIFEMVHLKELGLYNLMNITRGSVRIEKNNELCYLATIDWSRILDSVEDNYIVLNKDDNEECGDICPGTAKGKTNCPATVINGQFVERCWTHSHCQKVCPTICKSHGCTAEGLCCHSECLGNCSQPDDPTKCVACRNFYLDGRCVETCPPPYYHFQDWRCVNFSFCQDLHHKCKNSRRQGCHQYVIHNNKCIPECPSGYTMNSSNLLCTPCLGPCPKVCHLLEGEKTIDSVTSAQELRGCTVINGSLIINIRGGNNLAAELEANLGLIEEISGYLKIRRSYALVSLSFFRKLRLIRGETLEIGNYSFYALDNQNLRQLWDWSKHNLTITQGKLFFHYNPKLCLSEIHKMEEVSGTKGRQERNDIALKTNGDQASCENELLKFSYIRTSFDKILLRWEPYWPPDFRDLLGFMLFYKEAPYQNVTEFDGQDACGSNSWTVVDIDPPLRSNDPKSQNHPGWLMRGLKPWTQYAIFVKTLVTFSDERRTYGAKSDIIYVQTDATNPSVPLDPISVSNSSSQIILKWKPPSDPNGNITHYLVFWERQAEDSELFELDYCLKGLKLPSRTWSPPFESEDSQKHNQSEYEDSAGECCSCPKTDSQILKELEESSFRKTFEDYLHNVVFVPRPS
Sequence (P06213 763-956, chain 2 of 2): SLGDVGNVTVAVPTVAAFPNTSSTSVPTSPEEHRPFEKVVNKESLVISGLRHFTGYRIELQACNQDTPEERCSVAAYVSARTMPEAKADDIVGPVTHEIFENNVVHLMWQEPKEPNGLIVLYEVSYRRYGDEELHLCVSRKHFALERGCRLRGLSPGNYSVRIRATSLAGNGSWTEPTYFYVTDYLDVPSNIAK
Experiment: filter; +/-1.08; 40 mM HEPES pH 7.5, 120 mM NaCl, 5 mM KCl, 5 mM MgCl2, 0.002% tween-20, 37 C; not competing with IR-13
Conditions: tags: His-tagged; R&D Systems Cat# 1544-IR; chain copies: 2; label: 5'-32P
valueType: pKd
The quantity pKd is defined as the negative base-10 logarithm of the molar concentration.

Entry under review: IR-6 (ssDNA) DNA: GAGTGACCGTCTGCCTGTGGGTACAGTCTTTAGCTTACACAGGCTCCTGAAGACGCACAGCCACACCACCAGCC . Reported pKd? 8.34

// provenance: patent US20110262922
